# T, minutes (residence time) per entry
# TARGET: HIV-1 NefNL4-3 (Human immunodeficiency virus type 1 group M subtype B, UniProt P03406, A33V/T15A/T51N/V11I)
# MEASUREMENT DESCRIPTION: Surface plasmon resonance binding to recombinant full-length Nef (NL4-3)
# MEASUREMENT CONTEXT: Table 4; 1:1 Langmuir fit; T = 1/koff
// note: answer is a bare numeric in E + 00 minutes

[
  {
    "MOLECULE": "CC(C)(C)c1nn(-c2nc3ccccc3[nH]2)c(O)c1CC1CCOCC1 [Compound I-180]",
    "UNITS TEXT": "E + 00 minutes",
    "READING": 2.48
  },
  {
    "MOLECULE": "Oc1c(CC2CCOCC2)c(C2CC(F)(F)C2)nn1-c1nc2ccccc2[nH]1 [Compound I-176]",
    "UNITS TEXT": "E + 00 minutes",
    "READING": 5.08
  },
  {
    "MOLECULE": "Oc1c(CC2CCOCC2)c(-c2ccccc2)nn1-c1nc2ccccc2[nH]1 [Compound I-183]",
    "UNITS TEXT": "E + 00 minutes",
    "READING": 7.61
  },
  {
    "MOLECULE": "Oc1c(CC2CCOCC2)c(C2CC(F)(F)C2)nn1-c1nc2cccnc2[nH]1 [Compound I-316]",
    "UNITS TEXT": "E + 00 minutes",
    "READING": 5.19
  },
  {
    "MOLECULE": "CS(=O)(=O)N1CCC(c2nn(-c3nc4cc(Cl)ccc4[nH]3)c(O)c2CCn2nccn2)CC1 [Compound I-707]",
    "UNITS TEXT": "E + 00 minutes",
    "READING": 4.33
  }
]

What does the record list as T, minutes (residence time) for O=C(COCc1ccncc1)N1CCC(Cc2nn(-c3nc4ccccc4[nH]3)c(O)c2CCc2ccc(F)cc2)CC1 [Compound I-769] ?
9.47

Fill blank: measured T, minutes (residence time) of the molecule CC(C)OC(=O)N1CCC(c2nn(-c3nc4ccccc4[nH]3)c(O)c2CC2CCOCC2)CC1 [Compound I-725] is ____.
4.73

Query: T, minutes (residence time); subject: Cn1c(-n2nc(-c3ccc(S(C)(=O)=O)cc3)c(CCc3ccc(F)cc3)c2O)nc2ccccc21 [Compound I-403]
3.63

Which value of T, minutes (residence time) has been reported for Oc1c(CCc2ccc(F)cc2)c(C2CCN(CC3CCOCC3)CC2)nn1-c1nc2ccccc2[nH]1 [Compound I-806] in the records?
1.79

Which T, minutes (residence time) value is on record for Oc1c(CCc2ccc(F)cc2)c(C2CCOCC2)nn1-c1cc(C(F)(F)F)n[nH]1 [Compound I-623] ?
2.88

Please report the recorded T, minutes (residence time) for CC(C)(O)C(=O)N1CCC(Cc2nn(-c3nc4ccccc4[nH]3)c(O)c2CCc2ccc(F)cc2)CC1 [Compound I-777] .
3.50

Dear colleague, I am looking for the recorded T, minutes (residence time) of the following molecule: CC(=O)N1CCCC(Cc2c(C3CC3)nn(-c3nc4ccccc4[nH]3)c2O)C1 (centres unmarked) [Compound I-780]
8.13
